System: vancomycin-susceptible enterococci
Experiment: broth micro-dilution, mean geometric MIC
Format: cell-based, Enterococcus faecium and Enterococcus faecalis
Conditions: enterococci, 24-hour incubation
metricName: mean geometric MIC, Vancomycin Sensitive Strains
For clarity, give the value followed by its unit.

State the recorded mean geometric MIC, Vancomycin Sensitive Strains for every item in the following list.
1. CC(C)CC(C(=O)NC1C(=O)NC(CC(N)=O)C(=O)NC2C(=O)NC3C(=O)NC(C(=O)NC(C(=O)O)c4cc(O)cc(O)c4-c4cc3ccc4O)C(OC3CC(C)(N)C(O)C(C)O3)c3ccc(c(Cl)c3)Oc3cc2cc(c3OC2OC(CO)C(O)C(O)C2OC2CC(C)(NCc3cccc(Oc4ccccc4)c3)C(O)C(C)O2)Oc2ccc(cc2Cl)C1O)N(C)Cc1cccc(Oc2ccccc2)c1 (centres unmarked) [Compound 271]
2. COc1ccc2ccccc2c1CNC1(C)CC(OC2C(Oc3c4cc5cc3Oc3ccc(cc3Cl)C(OC3CC(C)(N)C(O)C(C)O3)C3NC(=O)C(NC(=O)C5NC(=O)C(CC(N)=O)NC(=O)C(NC(=O)C(CC(C)C)N(C)Cc5c(OC)ccc6ccccc56)C(O)c5ccc(c(Cl)c5)O4)c4ccc(O)c(c4)-c4c(O)cc(O)cc4C(C(=O)O)NC3=O)OC(CO)C(O)C2O)OC(C)C1O (centres unmarked) [Compound 282]

A)
1: 0.33 µg/mL; 2: 2.6 µg/mL

====

For each of the compounds below, state its mean geometric MIC, Vancomycin Resistant Strains.
System: vancomycin-resistant enterococci
Experiment: broth micro-dilution, mean geometric MIC
Type: cell-based, Enterococcus faecium and Enterococcus faecalis
Details: enterococci, 24-hour incubation
Numbers only, in µg/mL.

INSERT INTO assay_data (compound, quantitativeresult) VALUES
  ('CNC(CC(C)C)C(=O)NC1C(=O)NC(CC(N)=O)C(=O)NC2C(=O)NC3C(=O)NC(C(=O)NC(C(=O)O)c4cc(O)cc(O)c4-c4cc3ccc4O)C(OC3CC(C)(N)C(O)C(C)O3)c3ccc(c(Cl)c3)Oc3cc2cc(c3OC2OC(CO)C(O)C(O)C2OC2CC(C)(NCc3ccc(C(F)(F)F)cc3)C(O)C(C)O2)Oc2ccc(cc2Cl)C1O (centres unmarked) [Compound 37]', 2.4);

Next compound, please.
compound CNC(CC(C)C)C(=O)NC1C(=O)NC(CC(N)=O)C(=O)NC2C(=O)NC3C(=O)NC(C(=O)NC(C(=O)O)c4cc(O)cc(O)c4-c4cc3ccc4O)C(OC3CC(C)(N)C(O)C(C)O3)c3ccc(c(Cl)c3)Oc3cc2cc(c3OC2OC(CO)C(O)C(O)C2OC2CC(C)(NCc3ccc(-c4ccccc4)s3)C(O)C(C)O2)Oc2ccc(cc2Cl)C1O (centres unmarked) [Compound 67] , mean geometric MIC, Vancomycin Resistant Strains observed: 1.7

====

Tested on: Staphylococcus aureus S13E
Type: cell-based
Would you mind telling me the reported MIC of each entry?
Give bare numbers, in mg/L.

INSERT INTO results (compound, metricname, quantitativeresult) VALUES
  ('CNC(CC(C)C)C(=O)NC1C(=O)NC(CC(N)=O)C(=O)NC2C(=O)NC3C(=O)NC(C(=O)NC(C(=O)O)c4cc(O)cc(O)c4-c4cc3ccc4O)C(OC3CC(C)(N)C(O)C(C)O3)c3ccc(c(Cl)c3)Oc3cc2cc(c3OC2OC(CO)C(O)C(O)C2OC2CC(C)(NCc3ccc(OC(=O)c4ccccc4)cc3)C(O)C(C)O2)Oc2ccc(cc2Cl)C1O (centres unmarked) [Compound 150]', 'MIC', 0.25);

# input for lookup
The compound CNC(CC(C)C)C(=O)NC1C(=O)NC(CC(N)=O)C(=O)NC2C(=O)NC3C(=O)NC(C(=O)NC(C(=O)O)c4cc(O)cc(O)c4-c4cc3ccc4O)C(OC3CC(C)(N)C(O)C(C)O3)c3ccc(c(Cl)c3)Oc3cc2cc(c3OC2OC(CO)C(O)C(O)C2OC2CC(C)(NCc3ccc(Oc4cccc(Cl)c4)c([N+](=O)[O-])c3)C(O)C(C)O2)Oc2ccc(cc2Cl)C1O (centres unmarked) [Compound 87] showed MIC equal to 0.5

Just for reference, patent US5840684A is where these values come from.
